# Tested on: SR
# protocol.description: NCI tumour cell line growth inhibition, 48 h
Calls of active or inactive are those of the source. No stated cut-off is given here; in the data, active = GI50 up to about 1.1 µM and inactive = higher.
Classes used: 1 for active, -1 for inactive

compound | assigned.label
O=C(OCc1ccccc1)C1(N2CN(C3(C(=O)OCc4ccccc4)CCCC3)CN(C3(C(=O)OCc4ccccc4)CCCC3)C2)CCCC1 | -1
Cc1cccc(N(CCC#N)S(=O)(=O)c2ccccc2)c1 | -1
CC(=O)OC1CC[C@@]2(C)C(=CC[C@@H]3[C@@H]2CC[C@]2(C)C(OC(C)=O)[C@H](n4ccnc4)C[C@@H]32)C1 (stereo partly drawn) | -1
Cc1c(Cl)cccc1/N=N/C(=O)NNc1cccc(Cl)c1C | -1
Cc1ccccc1/C=C/c1csnn1 | -1
CN1CCc2cc(O)c3cc2C1Cc1ccc(cc1)Oc1cc(ccc1O)CC1c2c(cc4c(c2O3)OCO4)CCN1C (stereo not drawn) | -1
CC1=CC2CC(C)C1(C)CCc1ccoc12 (stereo not drawn) | -1
Cn1cc(C(=O)C2CCCCC2)ccc1=O | -1
O=C1NC(Nc2ccccc2Cl)=N/C1=C\c1c(Cl)cccc1Cl | -1
CCCCCCCCCCCC[S+](C)C | -1
COc1ccc2nc3cc(Cl)ccc3c(Nc3ccc(O)c(CN4CCN(C)CC4)c3)c2c1 | 1
COc1ccc(Nc2nc3ccccc3n3cccc23)cc1OC | -1
C1=C(c2ccccc2)SC(N2CCCCC2)S1 (stereo not drawn) | -1
CO/N=C1/C(n2[nH]c(=O)n(-c3ccccc3)c2=O)C2C=CC1n1c(=O)n(-c3ccccc3)c(=O)n12 (stereo not drawn) | -1
O=C1c2cccc([N+](=O)[O-])c2C(=O)N1Cc1ccccc1 | -1
O=C(NCO)NCOCn1c(=O)n(CO)c(=O)n(CO)c1=O | -1
CCOC(=O)Nn1cnnc1C | -1
COc1ccc(/C(Cl)=C(\C=O)c2ccc(Cl)cc2)cc1 | -1
COc1ccc(/C=C2/CSCC3=C2N=C(S)NC3c2ccc(OC)c(OC)c2OC)c(OC)c1OC (stereo not drawn) | 1
CCNCC(O)c1ccc(N)c([N+](=O)[O-])c1 (stereo not drawn) | -1
O=C(/C=C/c1ccc(-c2ccccc2)cc1)NCc1ccc(C(=O)NCCc2c[nH]c3ccccc23)cc1 | -1
CC(C)(C)C1CCC2c3c([nH]c4ccccc34)C3C(=O)N(c4ccc(C(=O)O)cc4)C(=O)C3C2C1 (stereo not drawn) | -1
O=C(c1cc2ccccc2[nH]1)C(O)(c1cc2ccccc2[nH]1)c1cc2ccccc2[nH]1 | -1
NC1=Nc2ccccc2Sc2nncn21 | -1
Nc1ncc2c(n1)-c1ccccc1OC2N1CCCCC1 (stereo not drawn) | -1
O=C(CCc1nnc2s/c(=C\c3ccccc3Cl)c(=O)n12)Nc1cc(Cl)ccc1Cl | -1
CC(CCOc1c2ccoc2cc2oc(=O)ccc12)C1=CC(=O)C(C)(C)O1 (stereo not drawn) | -1
Cc1ccc(-n2c(O)c(C#N)c3[nH]nc(N)c3c2=O)cc1 | -1
CC[C@@]1(O)C(=O)OCc2c1cc1n(c2=O)Cc2c-1nc1ccccc1c2/C=N\NC(=O)C(N)CC(C)C (stereo partly drawn) | 1
COC(=O)C[C@H](COCc1ccccc1)NC(=O)C[C@H](COCc1ccccc1)NC(=O)C[C@H](COCc1ccccc1)NC(=O)OC(C)(C)C | -1
CSc1c(C#N)c(O)n(-c2ccc(C)cc2)c(=O)c1C#N | -1
N=C(N)SCc1ccc2c(c1)Sc1ccccc1O2 | -1
Cc1nn(C(=O)Cc2ccccc2)c2c1C(c1ccc([N+](=O)[O-])cc1)SC(=N)N2 (stereo not drawn) | -1
C1CN(P2(N3CC3)=NP(N3CC3)(N3CC3)=NP(N3CC3)(N3CC3)=N2)CCO1 (stereo not drawn) [FOTRETAMINE] | -1
O=C1CCCCN1C(=O)c1ccc([N+](=O)[O-])cc1 | -1
CN(C)Cc1cc(C(C)(C)C)cc(C2CCCCC2)c1O | -1
O=C1CCC[C@H]2O[C@@H](COC(=O)c3ccccc3)C[C@H]2O1 | -1
C/C=C(/C)c1cnc(CC(C)C)c(=O)[nH]1 | -1

====

# Test system: KM-20L2
# protocol.description: NCI tumour cell line growth inhibition, 48 h
Active and inactive are the calls of the source. Cut-off read from the data, not from the text of the source: active = GI50 up to about 1.1 µM and inactive = higher.
value.type: GI50

molecule | obs.value
CN1c2ccccc2N(C)C23N(C)c4ccccc4N(C)C12N(C)c1ccccc1N3C (stereo not drawn) | > 100 µM (inactive)
CC1=NOC(=O)/C1=C/c1ccc([N+](=O)[O-])cc1 | > 100 µM (inactive)
CC1CC2C3CCC4=CC(=O)C=CC4(C)C3(F)C(O)CC2(C)C1(O)C(=O)CO.Cc1nnc(NS(=O)(=O)c2ccc(/N=N/c3cc(/N=N/c4ccc(S(=O)(=O)Nc5nnc(C)s5)cc4)c4c(NC(=O)C(Cl)Cl)cccc4c3OC(=O)C(Cl)Cl)cc2)s1 | 31.3 µM (inactive)

====

# Tested on: NCI-H460
# protocol.description: NCI tumour cell line growth inhibition, 48 h
Activity calls are given as the source filed them. Cut-off read from the data, not from the text of the source: active = GI50 up to about 1.1 µM and inactive = higher.
GI50 values for the compounds below.
value.type: GI50

compound | value.type | obs.value
CSc1ccc(/C=C2\N=C(c3ccccc3)N(NC(=O)c3c(Cl)c(Cl)c(Cl)c(Cl)c3-c3nc4ccccc4[nH]3)C2=O)cc1 | GI50 | 4.43 µM (inactive)
Cc1ccc(S(=O)(=O)Oc2cc(-c3ccccc3)nc3ccccc23)cc1 | GI50 | 1.81 µM (inactive)
COc1cc(/C=C2\C[C@H]3[C@@H]4CC=C5C[C@@H](OC(C)=O)CC[C@]5(C)[C@H]4CC[C@]3(C)\C2=N\O)cc(OC)c1OC | GI50 | 4.08 µM (inactive)
O=[N+]([O-])c1nccn1COCCF | GI50 | > 100 µM (inactive)
S=c1nc(N2CCCCC2)c2cn[nH]c2[nH]1 | GI50 | 42.3 µM (inactive)
CC1(C)CC(=O)c2c(nc3ccc4ccccc4c3c2-c2ccc(NC(=O)CCCCCCCCC(=O)Nc3ccc(-c4c5c(nc6ccc7ccccc7c46)CC(C)(C)CC5=O)cc3)cc2)C1 | GI50 | > 100 µM (inactive)
c1ccc(NNN2NC(c3ccccc3)C2c2ccccc2)cc1 (stereo not given) | GI50 | 72.4 µM (inactive)
CCOC(=O)/C(C(=O)Nc1cccc(Cl)c1)=C(/N)N1CCCC1 | GI50 | > 100 µM (inactive)
C/C=C(/C)c1cnc(CC(C)C)c(=O)[nH]1 | GI50 | > 100 µM (inactive)
CN(C)Cc1cc(C(C)(C)C)cc(C2CCCCC2)c1O | GI50 | 19.1 µM (inactive)
N=C(N)NCC1CCCCCCN1 (stereo not given) | GI50 | > 100 µM (inactive)
Cc1cc(=O)oc2c(C)c(OCCCOc3ccc4c(C)cc(=O)oc4c3C)ccc12 | GI50 | > 100 µM (inactive)
O=S(=O)(O)c1ccc(/N=N/c2c(O)ccc3ccccc23)cc1 | GI50 | > 100 µM (inactive)
CCCCCOc1ccc(NC2=C(Cl)C(=O)c3c(O)ccc(O)c3C2=O)cc1 | GI50 | 4.13 µM (inactive)
CCC12CCC(O)C1N(C)CCC2Sc1ccccc1 (stereo not given) | GI50 | > 100 µM (inactive)
CN1CCc2cc(O)c3cc2C1Cc1ccc(cc1)Oc1cc(ccc1O)CC1c2c(cc4c(c2O3)OCO4)CCN1C (stereo not given) | GI50 | 46.2 µM (inactive)
C=CN(C=C)C(=O)Cn1cc(-c2ccccc2)nn1 | GI50 | > 100 µM (inactive)
Cc1ccccc1/C=C/c1csnn1 | GI50 | > 47.3 µM (inactive)
N#CC1C(=S)NC(c2ccccc2)=CC12CCCCC2 (stereo not given) | GI50 | 94.8 µM (inactive)
c1ccc(/N=C2/SC(c3ccccc3)(c3ccccc3)c3ccccc32)cc1 | GI50 | > 100 µM (inactive)

====

# Test system: OVCAR-3
# protocol.description: NCI tumour cell line growth inhibition, 48 h
The source made the active and inactive calls. Rule as the data show it: active = GI50 up to about 1.1 µM and inactive = higher.
value.type: GI50

molecule | system | value.type | obs.value
NC1CC(=O)c2c(Cl)sc(Cl)c21 (centres undefined) | OVCAR-3 | GI50 | 6.47 µM (inactive)
CCOC(=O)C(=O)Nc1c(CC)cccc1C(C)C | OVCAR-3 | GI50 | > 100 µM (inactive)
CCCCCCCCCCCC[S+](C)C | OVCAR-3 | GI50 | 5.38 µM (inactive)
CCCSc1cc(Cl)c(C)cc1S(=O)(=O)n1ccnc1OCCCN(C)C | OVCAR-3 | GI50 | > 100 µM (inactive)
Cc1ccc(C)c(/C(=N\N=C(N)N)C2CC2)c1 | OVCAR-3 | GI50 | 94.6 µM (inactive)
COc1ccc2c(c1)C(=O)OCCC2 | OVCAR-3 | GI50 | > 100 µM (inactive)
O=C1OC(c2ccccc2)=N/C1=C/NC(Cc1c[nH]c2ccccc12)C(=O)O (centres undefined) | OVCAR-3 | GI50 | > 100 µM (inactive)
CCOC(=O)c1c2ccccc2n2c(=O)n(-c3ccc(OC)cc3)nnc12 | OVCAR-3 | GI50 | 34.4 µM (inactive)
Cn1cnc([N+](=O)[O-])c1Sc1nc(N)nc2c1ncn2[C@H]1C[C@H](O)[C@@H](CO)O1 | OVCAR-3 | GI50 | 3.44 µM (inactive)
